B1: Ribonuclease HI, P0A7Y4 (parent)
chain: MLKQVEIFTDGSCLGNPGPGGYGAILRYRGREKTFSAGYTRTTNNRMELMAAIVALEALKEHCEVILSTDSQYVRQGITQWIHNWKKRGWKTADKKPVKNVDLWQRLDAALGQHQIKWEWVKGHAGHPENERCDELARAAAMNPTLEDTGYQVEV

# Variants of: B1
# CONDITION: Escherichia coli (strain K12); pH 5.5; Thermal; CD; Sodium acetate 10 mM; NaCl 0.1 M; reversible: yes; structure 2RN2; whole UniProt chain shown
MEASURED_ENDPOINT: unfolding enthalpy (van 't Hoff) (kcal/mol)
Reply with just the number (in kcal/mol).

The cases that follow already have their unfolding enthalpy (van 't Hoff) on record.
G23A: 91.8
V74L: 91.2
H62P: 102

Could you now look at the following variant, please?
Req: Consider the variant shown here: `D134H` What is its recorded unfolding enthalpy (van 't Hoff)?
Resp: 107
